# study_system: T1, human IgE (human, UniProt P01854 1-428)
# T1 construct: written under the same molecule; also called IgE (Abcam ab65866); soluble IgE
# T1 sequence (P01854 other isoform, or with tags, fused parts or gaps limits assumed, form in doubt): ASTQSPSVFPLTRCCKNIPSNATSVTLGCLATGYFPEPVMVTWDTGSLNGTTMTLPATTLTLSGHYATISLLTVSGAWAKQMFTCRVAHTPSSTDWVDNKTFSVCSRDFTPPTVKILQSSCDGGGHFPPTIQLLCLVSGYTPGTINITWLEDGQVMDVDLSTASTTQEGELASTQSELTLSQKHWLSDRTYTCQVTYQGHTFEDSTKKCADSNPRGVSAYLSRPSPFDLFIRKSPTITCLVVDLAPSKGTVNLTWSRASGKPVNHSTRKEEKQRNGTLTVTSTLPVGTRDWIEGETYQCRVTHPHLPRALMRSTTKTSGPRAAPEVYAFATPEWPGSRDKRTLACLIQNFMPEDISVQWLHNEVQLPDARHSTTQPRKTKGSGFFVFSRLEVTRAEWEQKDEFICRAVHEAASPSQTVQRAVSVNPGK
# experimental_protocol: ELISA, clone lysate on IgE-coated plate
metric_name: R1 Screening OD450

binder | recorded_measurement
9E8 (VHH, also called hzB10v40 VHH, CDR1 site 9 M to L) VHH: EVQLLESGGGEVQPGGSLRLSCVASGLTFSSYNLGWLRQAPGKEREFVGLSGSSSTSTYYAESVKGRFTISRDNAKNTVYLQMTSLRAEDTAVYYCAARRLLSTYWSDRSWDFWGQGTLVTVEP | 0.897
4-1F11 (VHH, also called hzB10v40 VHH, CDR1 site 4 F to P) VHH: EVQLLESGGGEVQPGGSLRLSCVASGLTPSSYNMGWLRQAPGKEREFVGLSGSSSTSTYYAESVKGRFTISRDNAKNTVYLQMTSLRAEDTAVYYCAARRLLSTYWSDRSWDFWGQGTLVTVEP | 0.798
6C2 (VHH, also called hzB10v40 VHH, CDR1 site 6 S to Q) VHH: EVQLLESGGGEVQPGGSLRLSCVASGLTFSQYNMGWLRQAPGKEREFVGLSGSSSTSTYYAESVKGRFTISRDNAKNTVYLQMTSLRAEDTAVYYCAARRLLSTYWSDRSWDFWGQGTLVTVEP | 0.826
5A1 (VHH, also called hzB10v40 VHH, CDR1 site 5 S to K) VHH: EVQLLESGGGEVQPGGSLRLSCVASGLTFKSYNMGWLRQAPGKEREFVGLSGSSSTSTYYAESVKGRFTISRDNAKNTVYLQMTSLRAEDTAVYYCAARRLLSTYWSDRSWDFWGQGTLVTVEP | 0.914
